Molecular target: T1, human insulin receptor INSR on cells (human, UniProt P06213 28-1382)
T1 construct: Expressed on CHO-S cells; also called hINSR; CHO-S-hINSR cells
T1 sequence (P06213 other isoform, or with tags, fused parts or gaps limits assumed): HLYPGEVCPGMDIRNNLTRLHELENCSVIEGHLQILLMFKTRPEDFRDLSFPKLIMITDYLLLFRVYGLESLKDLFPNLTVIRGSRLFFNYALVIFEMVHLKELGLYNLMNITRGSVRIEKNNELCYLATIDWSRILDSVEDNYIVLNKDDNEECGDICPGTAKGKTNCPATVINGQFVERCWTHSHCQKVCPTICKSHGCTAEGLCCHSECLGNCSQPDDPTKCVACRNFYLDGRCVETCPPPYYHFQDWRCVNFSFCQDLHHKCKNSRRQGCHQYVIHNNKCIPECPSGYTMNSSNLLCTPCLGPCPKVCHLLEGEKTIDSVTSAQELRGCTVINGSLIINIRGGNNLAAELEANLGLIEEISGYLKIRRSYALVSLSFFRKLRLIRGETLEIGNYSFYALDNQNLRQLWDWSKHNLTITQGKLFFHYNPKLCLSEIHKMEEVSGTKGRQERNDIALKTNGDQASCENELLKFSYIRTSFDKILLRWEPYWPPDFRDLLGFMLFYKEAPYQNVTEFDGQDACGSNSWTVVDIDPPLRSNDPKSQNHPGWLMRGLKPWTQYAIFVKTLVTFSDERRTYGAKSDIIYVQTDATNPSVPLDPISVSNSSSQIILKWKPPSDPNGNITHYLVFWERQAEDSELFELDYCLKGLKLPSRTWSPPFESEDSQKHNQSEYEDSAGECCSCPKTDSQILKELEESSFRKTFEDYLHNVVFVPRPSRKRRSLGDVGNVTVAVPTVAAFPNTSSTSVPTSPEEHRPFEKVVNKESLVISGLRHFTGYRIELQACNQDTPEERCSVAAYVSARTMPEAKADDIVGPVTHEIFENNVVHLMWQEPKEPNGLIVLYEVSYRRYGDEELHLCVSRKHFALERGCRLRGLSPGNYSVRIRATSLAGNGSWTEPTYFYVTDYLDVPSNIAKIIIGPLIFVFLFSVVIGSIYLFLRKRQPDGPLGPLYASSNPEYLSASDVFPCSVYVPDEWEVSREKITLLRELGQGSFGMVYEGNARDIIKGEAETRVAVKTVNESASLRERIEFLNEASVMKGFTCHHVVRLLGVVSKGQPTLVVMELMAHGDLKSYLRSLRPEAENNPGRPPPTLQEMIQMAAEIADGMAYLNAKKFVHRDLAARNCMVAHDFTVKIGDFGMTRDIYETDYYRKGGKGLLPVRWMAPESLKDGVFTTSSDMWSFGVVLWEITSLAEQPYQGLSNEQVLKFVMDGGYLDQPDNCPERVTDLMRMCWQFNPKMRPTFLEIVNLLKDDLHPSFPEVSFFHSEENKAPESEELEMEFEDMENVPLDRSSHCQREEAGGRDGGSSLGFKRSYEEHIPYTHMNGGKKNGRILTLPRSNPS
Assay: flow cytometry on CHO-S-hINSR cells, antibody 20 µg/mL
Measured Percentage of positive cells of individual entries

Teprotumumab analog (antibody, V domains shown, also called positive control) VH: QVELVESGGGVVQPGRSQRLSCAASGFTFSSYGMHWVRQAPGKGLEWVAIIWFDGSSTYYADSVRGRFTISRDNSKNTLYLQMNSLRAEDTAVYFCARELGRRYFDLWGRGTLVSVSS VL: EIVLTQSPATLSLSPGERATLSCRASQSVSSYLAWYQQKPGQAPRLLIYDASKRATGIPARFSGSGSGTDFTLTISSLEPEDFAVYYCQQRSKWPPWTFGQGTKVESKR = 1.5%
anti-IGF1R antibody 10G1 (antibody, human IgG1, V domains shown) VH: QVQLVESGGGLVKPGGSLRLSCAASEFTFSDYYMSWIRQSPGKGLEWVSYISNSGSFTNYADSVKGRFTISRDNAKNSLYLQMNSLRAEDSAIYYCVRDQAPVTSKYYYYGMDVWGQGTTVTVSS VL: EIVLTQSPSSLSASVGDRVTITCRASQGIRNDFAWYQQKPGKAPKRLIYAASRLQRGVPSRFSGSGSGTEFTLTISSLQPEDFATYYCLQHNSYPYTFGQGTKLEIK = 0.7%
anti-IGF1R antibody 10D1 (antibody, human IgG1, V domains shown) VH: QVQLQQSGGGVVRPGGSLRLSCAASGFTFADYGMSWVRQVPGKGLEWVSGINWNGGSTDYADSVKGRFTISRDNAKHSLYLQMNSLRAEDTAFYYCARDRGAVSRRYYYYGMDVWGLGTTVTVSS VL: AIQLTQSPSSLSASVGDRVTITCRASQDIRNDLGWYQLKPGKAPKRLIYAASRLQSGVPSGFSGSGSGTEFTLTISSLQPEDFATYYCLQHNSYPYTFGQGTKLEIK = 1.5%
anti-IGF1R antibody 12A4 (antibody, V domains shown) VH: EVQLVQSGGGEIRPGGSLRLSCAASGFTFADYGMSWVRQAPGEGLEWVSEIDWTGGSKLYADSVKGRFTISRDNAKNSLFLQMNSLRAEDTALYYCVRDRGAVSPKYYYYGMDVWGQGTTVTVSS VL: EIVLTQSPSSLSASVGDRVTITCRASQGIRNDLGWYQQKPGKAPKRLIYAASRLQSGVPSRFSGSGSGTDFTLTISSLQPEDFATYYCLQHNSYPYTFGQGTKLEIK = 0.4%

Percentage of positive cells reading for anti-IGF1R antibody 12D1 (antibody, human IgG1, V domains shown) VH: QVQLVESGGGVVRPGGSLRLSCAASGFTFDDYGMSWVRQVPGKGLEWVSGINWNGGSTDYADSVKGRFTISREKAKNSLYLQMNSLRAEDTALYYCVRDRGAVTRRYYYYGMDVWGQGTTVTVSS VL: DIQMTQSPSSLSASVGDRVTITCRASQDIRNDLGWYQLKPGKAPKRLIYAASRLQSGVPSRFSGSGSGTEFTLTISSLQPEDFATYYCLQHNSYPYTFGQGTKLEIK : 0.5%
